Provide the recorded pIC50 for the entries that follow.
- target desc: UniProtKB Q99571
- Sequence (Q99571 whole entry): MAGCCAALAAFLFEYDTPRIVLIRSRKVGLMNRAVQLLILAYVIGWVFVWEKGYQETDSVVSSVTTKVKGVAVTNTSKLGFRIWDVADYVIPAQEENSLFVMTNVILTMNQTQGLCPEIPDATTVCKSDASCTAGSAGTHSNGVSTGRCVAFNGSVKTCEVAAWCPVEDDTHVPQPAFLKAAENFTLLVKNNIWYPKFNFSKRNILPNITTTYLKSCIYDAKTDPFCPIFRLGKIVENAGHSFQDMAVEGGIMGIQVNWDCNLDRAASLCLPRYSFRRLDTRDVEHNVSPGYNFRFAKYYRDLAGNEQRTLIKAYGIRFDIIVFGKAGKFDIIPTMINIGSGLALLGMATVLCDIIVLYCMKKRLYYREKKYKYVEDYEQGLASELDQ
- protocol details: P2X4 receptor antagonist activity (ATP-induced intracellular calcium, Fura-2 AM)
- experimental conditions: 1321N1 cells stably expressing human P2X4 receptor; test substance 15 minutes before addition of ATP; Fura-2 AM F340/F380; read-out: Inhibitory activity IC50
Counter-ions that a name gives are not always drawn.
Scale note: pIC50 = -log10(concentration in M).

Reported pIC50 of O=C1CC(=O)N(c2ccc(-c3nccn3CCc3ccccc3)cc2)c2ccc3ccccc3c2N1 [Example 22, hydrochloride] : 7.04

Reported pIC50 of O=C1CC(=O)N(c2ccc(-c3nccn3CCc3ccccc3)c(O)c2)c2ccc3ccccc3c2N1 [Example 65] : 6.89

Reported pIC50 of CC(C)(Cc1nnnn1-c1ccc(N2C(=O)CC(=O)Nc3c2ccc2ccccc32)cc1)c1ccccn1 [Example 69, hydrochloride] : 5.27
